Values from paper PMC6379670

Target: HIV-1 TAR RNA
Type: binding
Settings: EMSA; positional scanning library, Table S1; with tRNA; read-out: Kd (nM) w/tRNA
Non-standard residues stand in square brackets, D forms with d. Residues, ends and D or L forms follow the SMILES beside them. hArg = N=C(N)NCCCC[C@H](N)C(=O)O
Kindly supply the reported Kd values for the records listed here.
Quick note: give the figure in nM, leave out the unit.

The recorded Kd for entry CC[C@H](C)[C@@H]1NC(=O)[C@H](CCCNC(=N)N)NC(=O)[C@H](CCCNC(=N)N)NC(=O)CNC(=O)[C@H](CCCCN)NC(=O)[C@H](CCCNC(=N)N)NC(=O)[C@H]([C@@H](C)O)NC(=O)[C@H](CCCNC(=N)N)NC(=O)[C@H](Cc2ccc(O)cc2)NC(=O)[C@H](CCCNC(=N)N)NC(=O)[C@@H]2CCCN2C(=O)[C@H]2CCCN2C(=O)[C@H]([C@@H](C)CC)NC(=O)[C@H](CCCNC(=N)N)NC1=O [JB-62] (cyclo(RYRTRKGRRIRI[dP]P)) equals 150

The recorded Kd for entry CC[C@H](C)[C@@H]1NC(=O)[C@H](CCCNC(=N)N)NC(=O)[C@H](CCCCNC(=N)N)NC(=O)CNC(=O)[C@H](CCCCN)NC(=O)[C@H](CCCNC(=N)N)NC(=O)[C@H]([C@@H](C)O)NC(=O)[C@H](CCCNC(=N)N)NC(=O)[C@H](C(C)C)NC(=O)[C@H](CCCNC(=N)N)NC(=O)[C@@H]2CCCN2C(=O)[C@H]2CCCN2C(=O)[C@H]([C@@H](C)CC)NC(=O)[C@H](CCCNC(=N)N)NC1=O [KP-Y-04] (cyclo(RVRTRKG[hArg]RIRI[dP]P)) equals 75

The recorded Kd for entry CC[C@H](C)[C@@H]1NC(=O)[C@H](CCCNC(=N)N)NC(=O)[C@H](C)NC(=O)[C@H](CCCNC(=N)N)NC(=O)[C@H](CCCNC(=N)N)NC(=O)CNC(=O)[C@H](CCCCN)NC(=O)[C@H](CCCNC(=N)N)NC(=O)[C@H]([C@@H](C)O)NC(=O)[C@H](CCCNC(=N)N)NC(=O)[C@H](C(C)C)NC(=O)[C@H](CCCNC(=N)N)NC(=O)[C@@H]2CCCN2C(=O)[C@H]2CCCN2C1=O [JB-75] (cyclo(RVRTRKGRRARI[dP]P)) equals 300

The recorded Kd for entry CC[C@H](C)[C@@H]1NC(=O)[C@H](CCCCNC(=N)N)NC(=O)[C@H](CCCNC(=N)N)NC(=O)CNC(=O)[C@H](CCCCN)NC(=O)[C@H](CCCNC(=N)N)NC(=O)[C@H]([C@@H](C)O)NC(=O)[C@H](CCCNC(=N)N)NC(=O)[C@H](C(C)C)NC(=O)[C@H](CCCNC(=N)N)NC(=O)[C@@H]2CCCN2C(=O)[C@H]2CCCN2C(=O)[C@H]([C@@H](C)CC)NC(=O)[C@H](CCCNC(=N)N)NC1=O [KP-Y-05] (cyclo(RVRTRKGR[hArg]IRI[dP]P)) equals 100

====

System: JB190 (synthetic)
Test: EMSA
recorded-endpoint: Kd (nM)
Quick note: give the figure in nM, leave out the unit.

The recorded Kd for entry GGCAGAUCUGAGCCUGGGAGCUCUCUGCC [HIV-1 TAR] equals 1.6
